Listed next: entries and their corresponding apparent KD of MS2 coat protein.
# System: MS2 coat protein
# Assay: apparent KD of MS2 coat protein; designed switch direction (-1 OFF switch, 1 ON switch): 1; higher = weaker reporter binding
# Condition Details: Eterna round: R95; input ligand: none
Provide only the numeric value, understood in nM.

# example entries with known answers
query: Query for MS2 coat protein: what apparent KD of MS2 coat protein does the record show for CUCAAAACAAGCUGCAGUGUUCGUCUUUAACAUGAGGAUCACCCAUGUAGUAGCCCGGUGGAAGCGCUCGGGCCACC [Antetera] (puzzle: Sensor for hsa-mir-208a) ?
result: 43.9

query: Provide value of apparent KD of MS2 coat protein for this record tested with MS2 coat protein: AGUCCAGCCUGAGCUGGACAAAAGCAUGUACAUGAGGAUCACCCAUGUUCAUGUACAAGCUUUUUGCUCGUCUUACU [salish99_208a_r3_077] (puzzle: Sensor for hsa-mir-208a)
result: 635

Here's the next entry for you.
query: GET /values?readout=apparent KD of MS2 coat protein&system=MS2 coat protein&item= UCUUGGUUUUUGCUCGUUUUUUGUGUUGAACAUGAGGAUCACCCAUGUAUUGUACGGUCCAGUUUAAUAAUGGUCCA [JMF 6] (puzzle: Sensor for hsa-mir-208a)
result: 26
